# tested.on: USP1 (construct USP1 (I-785, GG670, 671AA)/UAF1 (I-677)-Flag) (Homo sapiens (Human), UniProt O94782, G670A/G671A)
# Sequence (O94782 whole entry G670A/G671A): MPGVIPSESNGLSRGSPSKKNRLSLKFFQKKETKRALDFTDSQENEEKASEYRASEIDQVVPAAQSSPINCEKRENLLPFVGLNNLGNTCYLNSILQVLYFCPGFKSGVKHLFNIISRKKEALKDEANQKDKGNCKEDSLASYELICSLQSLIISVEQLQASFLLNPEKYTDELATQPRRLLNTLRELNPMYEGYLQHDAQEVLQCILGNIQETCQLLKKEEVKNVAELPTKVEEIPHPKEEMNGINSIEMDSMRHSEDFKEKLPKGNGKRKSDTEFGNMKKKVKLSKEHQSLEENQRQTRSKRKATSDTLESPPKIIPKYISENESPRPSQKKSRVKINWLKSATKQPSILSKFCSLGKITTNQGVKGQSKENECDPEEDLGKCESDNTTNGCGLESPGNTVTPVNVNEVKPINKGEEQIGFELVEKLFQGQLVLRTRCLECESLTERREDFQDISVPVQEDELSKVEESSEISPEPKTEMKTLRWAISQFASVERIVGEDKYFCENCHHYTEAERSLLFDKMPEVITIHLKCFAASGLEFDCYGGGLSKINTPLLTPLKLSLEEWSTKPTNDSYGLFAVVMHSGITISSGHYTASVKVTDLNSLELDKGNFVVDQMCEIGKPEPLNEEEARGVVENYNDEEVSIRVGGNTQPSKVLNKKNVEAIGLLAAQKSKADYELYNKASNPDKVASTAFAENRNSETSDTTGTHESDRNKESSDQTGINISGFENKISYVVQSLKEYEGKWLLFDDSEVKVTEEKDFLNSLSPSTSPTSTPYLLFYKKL
# Sequence (Q8TAF3 whole entry partner): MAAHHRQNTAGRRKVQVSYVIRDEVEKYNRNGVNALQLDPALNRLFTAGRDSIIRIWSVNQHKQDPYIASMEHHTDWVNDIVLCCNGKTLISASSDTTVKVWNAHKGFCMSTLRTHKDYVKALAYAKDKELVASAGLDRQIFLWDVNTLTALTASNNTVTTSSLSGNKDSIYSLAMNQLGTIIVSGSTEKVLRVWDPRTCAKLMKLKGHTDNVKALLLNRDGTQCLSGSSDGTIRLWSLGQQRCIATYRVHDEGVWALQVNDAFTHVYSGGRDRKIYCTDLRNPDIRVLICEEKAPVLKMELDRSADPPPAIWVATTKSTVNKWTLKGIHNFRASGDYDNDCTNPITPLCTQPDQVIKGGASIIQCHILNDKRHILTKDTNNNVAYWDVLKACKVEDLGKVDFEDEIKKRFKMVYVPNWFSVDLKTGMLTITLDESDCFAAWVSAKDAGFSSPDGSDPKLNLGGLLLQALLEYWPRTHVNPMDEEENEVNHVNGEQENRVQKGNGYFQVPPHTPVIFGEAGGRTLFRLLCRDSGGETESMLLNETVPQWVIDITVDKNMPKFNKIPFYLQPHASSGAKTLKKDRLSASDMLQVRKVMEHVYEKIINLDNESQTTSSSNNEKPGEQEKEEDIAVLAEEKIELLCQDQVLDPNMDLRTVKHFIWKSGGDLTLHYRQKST
# test.summary: Ubiquitin-Rhodamine 110 assay for USP1 activity
# applied.conditions: USP1/UAF1 25 pM, Ub-Rh110 25 nM, 30 min preincubation
IC50 overview

[
  {
    "molecule": "CC(=O)N1CCC(c2ccn(-c3ccc(Cn4c(=O)[nH]c5cnc(-c6cccnc6OCC(F)(F)F)nc54)cc3)n2)CC1",
    "IC50": "200 to 2000 nM"
  }
]

Requested field: IC50. Item: `CC(=O)Nc1ccc(Cn2c(=O)[nH]c3cnc(-c4ccccc4C(C)C)nc32)cc1`
200 to 2000 nM

Query (molecule): `CC(C)c1ccccc1-c1ncc2[nH]c(=O)n(Cc3ccc(-n4cc(CS(C)(=O)=O)nn4)cc3)c2n1` ; field requested: IC50
> 2000 nM

Name the recorded IC50 for `CC(C)c1ccccc1-c1ncc2[nH]c(=O)n(Cc3ccc(-c4ncsc4CO)cc3)c2n1` .
< 50 nM

Which value of IC50 has been reported for `O=c1[nH]c2cnc(-c3ccccc3OC(F)F)nc2n1Cc1ccc(-n2ccc(F)n2)cc1` in the records?
200 to 2000 nM

Fill in the blank: the reported IC50 of `CC(C)c1ccccc1-c1ncc2c(n1)n(Cc1ccc(-c3cccc4cnoc34)cc1)c(=O)n2C` is ____.
200 to 2000 nM

For the molecule shown here, `COCCNC(=O)N(C)c1ccc(Cn2c(=O)n(C)c3cnc(-c4ccccc4C(C)C)nc32)cc1` , give the reported IC50.
> 2000 nM

# input molecule: `CC(=O)N1CCC(c2cnc(-c3ccc(Cn4c(=O)[nH]c5cnc(-c6ccccc6C(C)C)nc54)cc3)n2C)CC1` ; wanted: its IC50
< 50 nM

* * *

# tested.on: USP1 (construct USP1 (I-785, GG670, 671AA)/UAF1 (I-677)-Flag) (Homo sapiens (Human), UniProt O94782, G670A/G671A)
# test.summary: Ubiquitin-Rhodamine 110 assay for USP1 activity
# applied.conditions: USP1/UAF1 25 pM, Ub-Rh110 25 nM, 30 min preincubation
# Experimental: Example 53: Ubitquin-Rhodamine 110 Assay for USP1 Activity […] Nanoliter quantities of either an 8-point or 10-point, 3-fold serial dilution in DMSO was pre-dispensed into assay plates (Perkin Elmer, ProxiPlate-384 F Plus, #6008269) for a final test concentration range of either 25 μM to 11 nM or 25 μM to 1.3 nM, respectively. […] Fluorescence was read on the Envision (Excitation at 485 nm and Emission at 535 nm; Perkin Elmer) or on the PheraSTAR (Excitation at 485 nm and Emission at 535 nm; BMG Labtech). […]
Listed below: IC50 values for each entry.

Guide cases for IC50, answers given:
[
  {
    "compound": "COC(=O)c1ccccc1-c1ncc2[nH]c(=O)n(Cc3ccc(-c4nc(C(F)(F)F)cn4C)cc3)c2n1 [Compound I-524]",
    "IC50": "< 0.05 µM"
  },
  {
    "compound": "CC(C)c1ccccc1-c1ncc2[nH]c(=O)n(CC3CCN(S(=O)(=O)C4CC4)CC3)c2n1 [Compound I-461]",
    "IC50": "0.05 to 0.2 µM"
  },
  {
    "compound": "CC(C)c1ccccc1-c1ncc2[nH]c(=O)n(Cc3ccc(-c4cnn(CCN(C)C)c4)cc3)c2n1 [Compound I-520]",
    "IC50": "0.2 to 2 µM"
  }
]

// returns reported IC50 for input CC(C)c1ccccc1-c1ncc2[nH]c(=O)n([C@@H](C)c3ccc(-n4cccn4)cc3)c2n1 [Compound I-157]
0.05 to 0.2 µM

Quick one: IC50 of CC(C)c1ccccc1-c1ncc2c(n1)n(Cc1ccc(NC(=O)NC3CC3)cc1)c(=O)n2C [Compound I-483] ?
0.2 to 2 µM

// lookup IC50 for CC(C)c1ccccc1-c1ncc2[nH]c(=O)n(CC3CCN(c4cccnc4)CC3)c2n1 [Compound I-143]
0.2 to 2 µM

* * *

# tested.on: USP1 (construct USP1 (I-785, GG670, 671AA)/UAF1 (I-677)-Flag) (Homo sapiens (Human), UniProt O94782, G670A/G671A)
# test.summary: Ubiquitin-Rhodamine 110 assay for USP1 activity
# applied.conditions: USP1/UAF1 25 pM, Ub-Rh110 25 nM, 30 min preincubation
This section presents compounds with their documented IC50 values.

Worked set:
[
  {
    "compound": "COCc1cn(-c2ccc(Cn3c(=O)[nH]c4cnc(-c5ccccc5C(C)C)nc43)cc2)nn1 [Compound I-344]",
    "IC50": "200 to 2000 nM"
  },
  {
    "compound": "CC(C)c1ccccc1-c1ncc2[nH]c(=O)n(Cc3ccc(C(=O)N4CC5(CCOC5)C4)cc3)c2n1 [Compound I-394]",
    "IC50": "200 to 2000 nM"
  },
  {
    "compound": "[2H]C([2H])([2H])n1c(=O)n(Cc2ccc(-c3nc(C(F)(F)F)cn3C)cc2)c2nc(-c3cccnc3C(C)C)ncc21 [Compound I-129]",
    "IC50": "< 50 nM"
  },
  {
    "compound": "CC(C)c1ccccc1-c1ncc2[nH]c(=O)n(Cc3ccc(-c4ccc(CCN(C)C)cc4)cc3)c2n1 [Compound I-249]",
    "IC50": "200 to 2000 nM"
  },
  {
    "compound": "Cn1cc(C(F)(F)F)nc1-c1ccc(Cn2c(=O)n(C)c3cnc(-c4ccccc4C(C)(C)O)nc32)cc1 [Compound I-132]",
    "IC50": "< 50 nM"
  },
  {
    "compound": "CC(C)c1ccccc1-c1ncc2c(n1)n(Cc1ccc(OCC3CC3)cc1)c(=O)n2C [Compound I-228]",
    "IC50": "50 to 200 nM"
  }
]

For CC(C)c1ccccc1-c1ncc2[nH]c(=O)n(Cc3ccc(-n4cccn4)nc3)c2n1 [Compound I-146] , what is its reported IC50?
50 to 200 nM

GET /values?readout=IC50&item= CC(C)c1c(F)cccc1-c1ncc2[nH]c(=O)n(Cc3ccc(-n4ncc5c4CNC5)cc3)c2n1 [Compound I-103]
50 to 200 nM

Entry Cc1cc(C)n(-c2ccc(Cn3c(=O)[nH]c4cnc(-c5ccccc5C(C)C)nc43)cc2)n1 [Compound I-1] has what IC50?
< 50 nM

# input compound: CC(C)c1ccccc1-c1ncc2[nH]c(=O)n(Cc3ccc(-c4nc(C(F)(F)F)cn4C4CNC4)cc3)c2n1 [Compound I-430] ; wanted: its IC50
< 50 nM

What does the data say about its IC50? Entry: CC(C)c1ccccc1-c1ncc2[nH]c(=O)n(Cc3ccc(C(=O)N(C)CCO)cc3)c2n1 [Compound I-376]
200 to 2000 nM

Endpoint output: IC50 of Cc1cn(C)c(-c2ccc(Cn3c(=O)n(C)c4cnc(-c5ccccc5C(C)C)nc43)cc2)n1 [Compound I-258] . Value?
< 50 nM

IC50 for O=c1[nH]c2cnc(-c3cc(Cl)ccc3C3CC3)nc2n1Cc1ccc(-n2cccn2)cc1 [Compound I-95] ?
< 50 nM

Looking for the measured IC50 of Cc1nnn(-c2ccc(Cn3c(=O)[nH]c4cnc(-c5ccccc5C(C)C)nc43)cc2)n1 [Compound I-168] , can you help?
50 to 200 nM

I have this compound here, Cc1cc(C(F)(F)F)n(-c2ccc(Cn3c(=O)[nH]c4cnc(-c5ccccc5C(C)C)nc43)cc2)n1 [Compound I-195] , and I need its recorded IC50.
< 50 nM

* * *

# tested.on: USP1 (construct USP1 (I-785, GG670, 671AA)/UAF1 (I-677)-Flag) (Homo sapiens (Human), UniProt O94782, G670A/G671A)
# test.summary: Ubiquitin-Rhodamine 110 assay for USP1 activity
# applied.conditions: USP1/UAF1 25 pM, Ub-Rh110 25 nM, 30 min preincubation
pIC50: −log10 of the molar value.
measurement.label: pIC50

// solved cases for pIC50 follow
[
  {
    "molecule": "CC(C)c1ccccc1-c1ncc2[nH]c(=O)n([C@@H](C)c3ccc(-c4nccn4C)cc3)c2n1 [Compound I-310]",
    "pIC50": "> 7.30"
  },
  {
    "molecule": "CC(C)c1ccccc1-c1ncc2c(n1)n(Cc1ccc(-c3cn(C(C)C)cn3)cc1)c(=O)n2C [Compound I-277]",
    "pIC50": "> 7.30"
  },
  {
    "molecule": "CC(C)c1ccccc1-c1ncc2[nH]c(=O)n(Cc3ccc(-n4cc(C5CC5)nn4)cc3)c2n1 [Compound I-343]",
    "pIC50": "6.70 to 7.30"
  },
  {
    "molecule": "COc1ccc(-c2ncc3[nH]c(=O)n(Cc4ccc(-c5nc(C(F)(F)F)cn5C)cc4)c3n2)c(C)n1 [Compound I-73]",
    "pIC50": "> 7.30"
  },
  {
    "molecule": "CC(C)c1c(F)cccc1-c1ncc2[nH]c(=O)n(Cc3ccc(-n4cc5c(n4)CNC5)cc3)c2n1 [Compound I-104]",
    "pIC50": "5.70 to 6.70"
  },
  {
    "molecule": "CC(C)c1ccccc1-c1ncc2[nH]c(=O)n(Cc3ccc(C(=O)N4CCOC[C@H]4C)cc3)c2n1 [Compound I-404]",
    "pIC50": "5.70 to 6.70"
  }
]

Query: pIC50; subject: CC(C)c1ccccc1-c1ncc2[nH]c(=O)n(Cc3ccc(-n4ccc([C@H]5CCCNC5)n4)cc3)c2n1 (single isomer, unassigned) [Compound I-225]
6.70 to 7.30

Could you tell me which pIC50 is on file for Cn1cc(C(F)(F)F)nc1-c1ccc(Cn2c(=O)[nH]c3cnc(-c4cccnc4NC4CCOCC4)nc32)cc1 [Compound I-321] ?
5.70 to 6.70

Bench note: what pIC50 did Cn1cc(C(F)(F)F)nc1-c1ccc(Cn2c(=O)[nH]c3cnc(-c4cccnc4N4CCOCC4)nc32)cc1 [Compound I-333] show?
6.70 to 7.30

I have this molecule here, CC(C)Oc1cc(F)ccc1-c1ncc2[nH]c(=O)n(Cc3ccc(-n4nccn4)cc3)c2n1 [Compound I-15] , and I need its recorded pIC50.
< 5.70

pIC50 lookup needed for Cn1cc(C(F)(F)F)nc1-c1ccc(Cn2c(=O)n(C)c3cnc(-c4cccnc4OC4CC4)nc32)cc1 [Compound I-137] , thanks.
> 7.30

Data request, read-out pIC50, for CC(C)c1ccccc1-c1ncc2[nH]c(=O)n(Cc3ccc(S(C)(=O)=O)cc3)c2n1 [Compound I-183]
< 5.70

I am curious: what pIC50 value has been reported for CC(C)c1ccccc1-c1ncc2[nH]c(=O)n(Cc3ccccc3)c2n1 [Compound I-171] ?
6.70 to 7.30

Record request: pIC50 value, item CC(C)c1ncccc1-c1ncc2[nH]c(=O)n(Cc3ccc(-c4nc(C(F)(F)F)cn4C4CC4)cc3)c2n1 [Compound I-76]
> 7.30

Value lookup for pIC50; key = Cc1nc(S(=O)(=O)N(C)c2ccc(Cn3c(=O)n(C)c4cnc(-c5ccccc5C(C)C)nc43)cc2)cn1C [Compound I-458]
5.70 to 6.70

If you can, please state the reported pIC50 value of CC(C)c1ncccc1-c1ncc2[nH]c(=O)n(Cc3ccc(-n4ccc(C5CCNCC5)n4)cc3)c2n1 [Compound I-435] .
< 5.70

Consider the molecule CC(C)c1ccccc1-c1ncc2c(n1)n(Cc1ccc(NCC3CC3)cc1)c(=O)n2C [Compound I-488] and give its measured pIC50.
6.70 to 7.30

For Cn1cc(C(F)(F)F)nc1-c1ccc(Cn2c(=O)[nH]c3cnc(-c4cccnc4N4CC(C(F)(F)F)C4)nc32)cc1 [Compound I-337] , what is its reported pIC50?
> 7.30

If you can, please state the reported pIC50 value of CC(C)c1ccccc1-c1ncc2c(n1)n(Cc1ccc(-c3nnc4ccccn34)cc1)c(=O)n2C [Compound I-286] .
> 7.30

Which value of pIC50 has been reported for Cn1cc(C(F)(F)F)nc1-c1ccc(Cn2c(=O)n(C3CC3)c3cnc(-c4ccccc4C4CC4)nc32)cc1 [Compound I-100] in the records?
> 7.30

Bench note: what pIC50 did CC(C)c1ccccc1-c1ncc2[nH]c(=O)n(Cc3ccc(-c4nnn[nH]4)cc3)c2n1 [Compound I-513] show?
< 5.70

If you can, please state the reported pIC50 value of CC(C)c1ccccc1-c1ncc2[nH]c(=O)n(C3CCC34CN(c3cccnc3)C4)c2n1 (stereo not shown) [Compound I-495] .
5.70 to 6.70

Endpoint output: pIC50 of CC(=O)c1ccccc1-c1ncc2[nH]c(=O)n(Cc3ccc(-c4nc(C(F)(F)F)cn4C)cc3)c2n1 [Compound I-38] . Value?
> 7.30
